Exercise: state measured logP at 0.25 h for each of the compounds provided.
assay: n-Octanol-water partition coefficient, log P of the compound after 15 mins by shake flask method; assay type: physicochemical
Numbers only.

C[C@@H](NC(=O)OCC(F)(F)C(F)F)c1nc2ccc(F)cc2s1 = 2.92

Below are 3 compounds. Give each one its logP at 0.25 h.
1. C[C@@H](NC(=O)OCC(F)(F)F)c1nc2ccc(F)cc2s1
2. C[C@@H](NC(=O)OCCCCl)c1nc2ccc(F)cc2s1
3. C[C@@H](NC(=O)OCC(F)(F)C(F)(F)C(F)(F)F)c1nc2ccc(F)cc2s1

1: 2.69; 2: 1.92; 3: 3.2
